quantity name: melting point (°C)

{"compound": "CCn1nc(C(C)(C)C)c2c1C(=NC#N)NCC(c1ccccc1)=N2 [Example 57]", "quantity name": "melting point", "quantitative result": 250}
{"compound": "CCn1nc(C)c2c1C(=NC#N)NCC(c1ccc(OC)cc1)=N2 [Example 84]", "quantity name": "melting point", "quantitative result": 265}
{"compound": "CCn1nc(C)c2c1C(=O)NCC(c1ccc(F)cc1)=N2 [Example 13]", "quantity name": "melting point", "quantitative result": 174}
{"compound": "CCn1nc(C(C)C)c2c1C(=O)NCC(c1ccc(O)cc1)=N2 [Example 94]", "quantity name": "melting point", "quantitative result": 230}

---

assay system: PDE4
procedure details: Inhibition of PDE4 (cytosolic enzyme preparation from U937 line), compared with rolipram
Format: biochemical, human
stated conditions: PDE4 enzyme preparation obtained from the U937 line
pIC50: −log10 of the molar value.

{"compound": "CCn1nc(C(C)C)c2c1C(=S)NCC(c1ccc(C)cc1)=N2 [Example 66]", "pIC50": 9.20}
{"compound": "CCn1nc(C(C)C)c2c1C(=NC#N)NCC(c1ccc(C)cc1)=N2 [Example 81]", "pIC50": 9.27}
{"compound": "CCn1nc(C)c2c1C(=NC#N)NCC(c1ccc(O)cc1)=N2 [Example 88]", "pIC50": 8.68}
{"compound": "Cc1nn(CC2CC2)c2c1N=C(c1ccccc1)CNC2=O [Example 58]", "pIC50": 6.85}
{"compound": "CCn1nc(C)c2c1C(=O)NCC(c1cccc(O)c1)=N2 [Example 92]", "pIC50": 7.04}
{"compound": "CCn1nc(C(C)C)c2c1C(=S)NCC(c1ccccc1)=N2 [Example 2]", "pIC50": 9.01}
{"compound": "CCCn1nc(C(C)C)c2c1C(=O)NCC(c1ccc(C#N)cc1)=N2 [Example 42]", "pIC50": 8.00}
{"compound": "CCn1nc(C(C)C)c2c1C(=NC#N)NCC(C(C)(C)C)=N2 [Example 80]", "pIC50": 9.66}
{"compound": "CCCCc1nn(CC)c2c1N=C(c1ccccc1)CNC2=O [Example 34]", "pIC50": 8.33}
{"compound": "CCC(C)c1nn(CC)c2c1N=C(c1ccc(OC)cc1)CNC2=O (racemic) [Example 89]", "pIC50": 7.48}
{"compound": "CCCn1nc(C(C)(C)C)c2c1C(=O)NCC(C(C)(C)C)=N2 [Example 48]", "pIC50": 8.09}
{"compound": "CCn1nc(C)c2c1C(=O)NCC(c1ccc(N(S(=O)(=O)c3ccccc3)S(=O)(=O)c3ccccc3)cc1)=N2 [Example 56]", "pIC50": 6.30}
{"compound": "CCn1nc(C(C)C)c2c1C(=O)NCC(c1ccc(C#N)cc1)=N2 [Example 37]", "pIC50": 9.01}
{"compound": "CCn1nc(C)c2c1C(=O)NCC(c1ccc(OC)cc1)=N2 [Example 6]", "pIC50": 6.38}
{"compound": "CCn1nc(C)c2c1C(=O)NCC(c1ccc(C(F)(F)F)cc1)=N2 [Example 62]", "pIC50": 6.59}
{"compound": "CCCn1nc(C(C)(C)C)c2c1C(=O)NCC(c1ccc(C#N)cc1)=N2 [Example 50]", "pIC50": 7.80}
{"compound": "CCn1nc(C(C)(C)C)c2c1C(=O)NCC(c1ccc(C#N)cc1)=N2 [Example 46]", "pIC50": 9.08}
{"compound": "CCCn1nc(CC2CCCCC2)c2c1C(=O)NCC(c1ccccc1)=N2 [Example 77]", "pIC50": 6.68}
{"compound": "CCCn1nc(C(C)C)c2c1C(=O)NCC(c1ccc(OC)cc1)=N2 [Example 85]", "pIC50": 6.70}
